Data provenance is patent US4735954A.

Measurement description: acute toxicity in mice
Run conditions: mouse, in vivo, po, Female
Measurement type: LD50 (mg/kg)

[[record]]
compound_smiles = "CC(C)C(=O)c1c(C(C)C)nn2ccccc12"
unit_info = "mg/kg"
experimental_result = 1860


###

Measurement description: acute toxicity in rats
Run conditions: rat, in vivo, iv, Male
Measurement type: LD50

[[record]]
compound = "CC(C)C(=O)c1c(C(C)C)nn2ccccc12 [KC-404]"
experimental_result = "43.2 mg/kg"


###

Measurement description: acute toxicity in rats
Run conditions: rat, in vivo, sc, Female
Measurement type: LD50 (mg/kg)

[[record]]
compound = "CC(C)C(=O)c1c(C(C)C)nn2ccccc12 [KC-404]"
measurement_type = "LD50"
experimental_result = 1370


###

Measurement description: acute toxicity in mice
Run conditions: mouse, in vivo, ip, Female
Measurement type: LD50 (mg/kg)

[[record]]
compound_smiles = "CC(C)C(=O)c1c(C(C)C)nn2ccccc12"
experimental_result = 500


###

Measurement description: acute toxicity in rats
Run conditions: rat, in vivo, ip, Female
Measurement type: LD50 (mg/kg)

[[record]]
compound_smiles = "CC(C)C(=O)c1c(C(C)C)nn2ccccc12"
measurement_type = "LD50"
experimental_result = 419


###

Measurement description: acute toxicity in mice
Run conditions: mouse, in vivo, iv, Female
Measurement type: LD50 (mg/kg)

[[record]]
compound_smiles = "CC(C)C(=O)c1c(C(C)C)nn2ccccc12"
experimental_result = 146


###

Measurement description: acute toxicity in rats
Run conditions: rat, in vivo, po, Female
Measurement type: LD50 (mg/kg)

[[record]]
compound_smiles = "CC(C)C(=O)c1c(C(C)C)nn2ccccc12"
unit_info = "mg/kg"
experimental_result = 1400


###

Measurement description: acute toxicity in mice
Run conditions: mouse, in vivo, sc, Male
Measurement type: LD50 (mg/kg)

[[record]]
compound_smiles = "CC(C)C(=O)c1c(C(C)C)nn2ccccc12"
experimental_result = 3000


###

Measurement description: acute toxicity in mice
Run conditions: mouse, in vivo, sc, Female
Measurement type: LD50

[[record]]
compound = "CC(C)C(=O)c1c(C(C)C)nn2ccccc12 [KC-404]"
experimental_result = "3100 mg/kg"


###

Measurement description: acute toxicity in mice
Run conditions: mouse, in vivo, iv, Male
Measurement type: LD50 (mg/kg)

[[record]]
compound_smiles = "CC(C)C(=O)c1c(C(C)C)nn2ccccc12"
experimental_result = 160


###

Measurement description: acute toxicity in rats
Run conditions: rat, in vivo, ip, Male
Measurement type: LD50 (mg/kg)

[[record]]
compound = "CC(C)C(=O)c1c(C(C)C)nn2ccccc12 [KC-404]"
experimental_result = 500


###

Measurement description: acute toxicity in rats
Run conditions: rat, in vivo, iv, Female
Measurement type: LD50 (mg/kg)

[[record]]
compound_smiles = "CC(C)C(=O)c1c(C(C)C)nn2ccccc12"
measurement_type = "LD50"
experimental_result = 42.5


###

Measurement description: acute toxicity in rats
Run conditions: rat, in vivo, sc, Male
Measurement type: LD50 (mg/kg)

[[record]]
compound_smiles = "CC(C)C(=O)c1c(C(C)C)nn2ccccc12"
measurement_type = "LD50"
experimental_result = 1450

